Target: UniProtKB P51449
Sequence (P51449 269-508): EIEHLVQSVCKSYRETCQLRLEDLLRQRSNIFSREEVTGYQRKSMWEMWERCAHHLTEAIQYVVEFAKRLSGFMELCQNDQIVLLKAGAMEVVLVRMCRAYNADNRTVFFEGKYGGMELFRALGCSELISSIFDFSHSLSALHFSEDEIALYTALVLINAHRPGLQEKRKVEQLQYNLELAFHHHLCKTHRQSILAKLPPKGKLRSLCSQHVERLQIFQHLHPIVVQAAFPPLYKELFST
Test: TR-FRET co-repressor NCoR1-D2 interaction with RORγ LBD
Type: biochemical
Details: 20 hr; read-out: RORγ EC50 NCoR1-D2 co-repressor recruitment 20 hr
Reported EC50 values are given for each entry in this list.

Worked cases, EC50 given:
1. CNC(=O)c1ccc(CN2CCc3cc(NC(C)=O)ccc32)cc1    > 30 µM
2. CC(=O)Nc1ccc2c(c1)CCN2Cc1ccc(-c2cc(C)n[nH]2)cc1    > 30 µM
3. CC(=O)Nc1ccc2c(c1)CCC(=O)N2Cc1ccc(C(O)(C(F)(F)F)C(F)(F)F)cc1    < 30 µM
4. CC(=O)Nc1ccc2c(c1)CCN2Cc1ccc(C(F)(F)F)cc1    > 30 µM

Continue with the next compound.
[in] Report EC50 for CC(=O)Nc1ccc2c(c1)CCN2Cc1ccc(C(=O)N(C)c2ccccc2)cc1 please.
[out] > 30 µM
